PROTOCOL DESCRIPTION: Tigecycline plasma PK after IV bolus in dogs
Type: in vivo, Beagle dogs
ASSAY CONTEXT: female, beagle, dog, plasma, intravenous, 1 mg, Tigecycline Plasma Concentration, 40 min; 1 mg IV in PBS (0.08 mg/kg), SC427; individual dogs

[
  {
    "SUBSTANCE SMILES": "CN(C)c1cc(NC(=O)CNC(C)(C)C)c(O)c2c1C[C@H]1C[C@H]3[C@H](N(C)C)C(O)=C(C(N)=O)C(=O)[C@@]3(O)C(O)=C1C2=O",
    "QUANTITY UNIT": "ng/mL",
    "concentration at 40 min": 14.3
  }
]
